Data origin, for the record: PubChem BioAssay (NCATS)

# subject of test: Cytochrome P450 1A2 (Homo sapiens) (UniProt P05177)
# Sequence (P05177 whole entry, looked up): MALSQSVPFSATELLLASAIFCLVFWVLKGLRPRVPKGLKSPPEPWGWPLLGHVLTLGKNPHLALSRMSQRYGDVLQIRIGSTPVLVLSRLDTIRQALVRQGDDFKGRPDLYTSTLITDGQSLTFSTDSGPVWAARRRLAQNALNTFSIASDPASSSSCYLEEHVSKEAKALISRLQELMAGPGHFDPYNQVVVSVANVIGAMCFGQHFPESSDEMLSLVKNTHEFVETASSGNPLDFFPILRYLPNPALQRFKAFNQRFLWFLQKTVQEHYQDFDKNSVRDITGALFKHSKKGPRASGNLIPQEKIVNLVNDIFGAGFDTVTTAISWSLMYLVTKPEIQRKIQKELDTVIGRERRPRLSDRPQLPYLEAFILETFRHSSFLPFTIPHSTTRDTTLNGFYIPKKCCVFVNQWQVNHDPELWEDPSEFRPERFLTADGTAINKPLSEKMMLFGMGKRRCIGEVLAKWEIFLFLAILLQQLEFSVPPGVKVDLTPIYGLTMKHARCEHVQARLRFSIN
# method summary: p450-cyp1a2 (AID 410); further: potency means the concentration at half of the fitted maximal effect
# condition: recombinant CYP1A2, luciferin-ME demethylation, luminescence; series mostly up to 57 µM
Inconclusive results are not listed. The source made the active and inactive calls. The call rests on the fitted dose curve.
measured attribute: Potency

[[record]]
compound = "O=C(CCc1ccc(O)cc1)c1c(O)cc(O)cc1O[C@@H]1O[C@@H](CO)[C@@H](O)[C@@H](O)[C@H]1O"
obs_value = "inactive"

[[record]]
compound = "CC(C)c1cccc2nc3c(c([Si](C)(C)C(C)(C)C)c12)Cn1c-3cccc1=O"
obs_value = "25.1 µM (active)"

[[record]]
compound = "COC(=O)[C@@]1(Cc2ccc(F)cc2)[C@H]2c3cc(C(=O)N4CCCC4)n(Cc4ccc(Cl)c(C(F)(F)F)c4)c3C[C@H]2CN1C(=O)c1ccccc1"
obs_value = "inactive"

[[record]]
compound = "CC(C)C[C@@H](CC(=O)N[C@@H](CCC(=O)O)CC(=O)O)NC(=O)[C@@H]1CNCC[C@H]1NC(=O)C[C@@H](NC(=O)C[C@H](Cc1c[nH]c2ccccc12)NC(=O)[C@@H]1CCCC[C@H]1N)C(C)C"
obs_value = "inactive"


The record that follows has no Potency shown yet.
I have this compound here, "COC(=O)[C@@]1(Cc2ccccc2)[C@H]2c3cc(C(=O)N4CCCC4)n(Cc4ccsc4Br)c3C[C@H]2CN1C(=O)c1ccccc1" , and I need its recorded Potency.
inactive

###

# method summary: NFAT Signaling Pathway (AID 444);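 further: carbachol stimulus at about its EC50 of 1 µM final; on the % scale 0 is the no-effect control and ±100 the full control effect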
# condition: Jurkat NFAT-bla M1, carbachol, beta-lactamase ratio, 5 h; at 17.2 µM (top of the series) unless noted
Inconclusive results are not listed.
measured attribute: activity change, negative = inhibition (%)
// note: answer is a bare numeric in %

The examples below pair each entry with its known result.
[[record]]
compound = "CC(=O)N(Cc1ccccc1)c1ccc(C(=O)O)cc1"
units_text = "%"
obs_value = -12.1

[[record]]
compound = "COC(=O)CC1=C(C(=O)OC)C(c2cccc(OCC(N)=O)c2)C(C#N)=C(N)O1 (stereo unspecified)"
units_text = "%"
obs_value = -17.4

[[record]]
compound = "COc1ccccc1OCC(=O)Nc1ccc(S(=O)(=O)Nc2cc(C)nc(C)n2)cc1"
units_text = "%"
obs_value = -9.32

[[record]]
compound = "COc1ccccc1-c1cc(-c2cc(Cl)ccc2O)n[nH]1"
units_text = "%"
obs_value = 2.8

[[record]]
compound = "CC(=O)Nc1cccc(NC(=O)CSc2nc(C)c(C)c(C)c2C#N)c1"
units_text = "%"
obs_value = 8.76


I have this compound here, "CCC(NC(=O)Nc1nnc(C(F)(F)F)s1)(C(F)(F)F)C(F)(F)F" , and I need its recorded activity change, negative = inhibition.
-115

I have this compound here, "N#Cc1nc(COc2ccc(Br)cc2)oc1NCCN1CCOCC1" , and I need its recorded activity change, negative = inhibition.
10.5

I have this compound here, "Cc1ccc(-n2ncc3c(NCc4cccnc4)ncnc32)c(C)c1" , and I need its recorded activity change, negative = inhibition.
-27.9

I have this compound here, "Cc1nnc(N2CCOCC2)c2ccccc12" , and I need its recorded activity change, negative = inhibition.
6.76

I have this compound here, COc1ccc(N2C(=O)C3C(C2=O)C2C=CC3C23CC3)c(OC)c1 (stereo unspecified) , and I need its recorded activity change, negative = inhibition.
5.04

I have this compound here, "CCC(=O)Nc1cc(-c2nn(C)c(=O)c3ccccc23)ccc1N1CCCCC1" , and I need its recorded activity change, negative = inhibition.
-13.8

###

# Test system: GB4
# method summary: qHTS profiling for inhibitors of Plasmodium falciparum proliferation (AID 504749); further: nearly all actives have a fitted effect of over 60% in size; further: potency means the concentration at half of the fitted maximal effect
# condition: P. falciparum in erythrocytes, SYBR Green DNA, 72 h; series mostly up to 28.7 µM
# Procedure: NIH National Institute of Allergy and Infectious Diseases [NIAID] NIH Chemical Genomics Center [NCGC] […] Because mature erythrocytes lack DNA, only Plasmodium-derived DNA is detected. NCGC Assay Protocol Summary: The SYBR Green viability assay was adapted from a method described previously (Plouffe et al., 2008). […] The following morning, fluorescence intensity at 485(14) nm excitation and 535(25) nm emission wavelengths was measured on an EnVision (Perkin Elmer) plate reader. […]
Inconclusive results are not listed. Activity calls are given as the source filed them. Calls follow the shape of the dose curve; as a rule, active = well fitted inhibition curve with a large enough effect; inconclusive = small, poorly fitted or top-dose-only effect; inactive = flat fitted curve, though single readings scatter.
measured attribute: Potency

[[record]]
molecule = "CC(=O)N[C@H]1[C@H](O[C@@H]2c3ccc(c(Cl)c3)Oc3cc4cc(c3O[C@@H]3O[C@H](CO)[C@@H](O)[C@H](O)C3C)Oc3ccc(cc3Cl)C[C@H]3NC(=O)[C@@H](N)c5ccc(O)c(c5)Oc5cc(O)cc(c5)[C@H](NC3=O)C(=O)N[C@H]4C(=O)N[C@H]3C(=O)N[C@@H]2C(=O)N[C@@H](C(=O)O)c2cc(O)cc(O[C@H]4O[C@H](CO)[C@@H](O)C(O)[C@@H]4O)c2-c2cc3ccc2O)O[C@H](CO)[C@@H](O)[C@@H]1O (stereo partly specified)"
obs_value = "inactive"

[[record]]
molecule = "CC(=O)OCC(=O)[C@@]1(O)CCC2C3C[C@H](C)C4=CC(=O)C=CC4(C)C3C(O)CC21C (stereo partly specified)"
obs_value = "inactive"

[[record]]
molecule = "COC1CC2CCC(C)[C@](O)(O2)C(=O)C(=O)N2CCCCC2C(=O)OC(C(C)CC2CCC(O)C(OC)C2)CC(=O)C(C)/C=C(/C)C(O)C(OC)C(=O)C(C)CC(C)C=CC=C/C=C\\1C (stereo partly specified)"
obs_value = "1690 nM (active)"

[[record]]
molecule = "CC(CN1CC(=O)NC(=O)C1)N1CC(=O)NC(=O)C1 (stereo unspecified)"
obs_value = "inactive"

[[record]]
molecule = "NC(=O)NC(CCC(=O)O)C(=O)O (stereo unspecified)"
obs_value = "inactive"


I have this molecule here, OCCOC[C@H]1O[C@H](OCCO)[C@H](OCCO)[C@@H](OCCO)[C@@H]1OCCO (tested in a mixture with another compound) , and I need its recorded Potency.
inactive

###

# method summary: Stat Signaling Pathway (AID 446);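 further: ME-180 cervical cancer cells given 40 pM IL-6 alongside compound; SIE-controlled beta-lactamase reporter measured as 460/530 nm FRET emission ratio; on the % scale 0 is the no-effect control and ±100 the full control effect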
# condition: ME-180 (cervical carcinoma) SIE beta-lactamase reporter, IL-6 stimulated, 5 h; at 17.2 µM (top of the series) unless noted
Inconclusive results are not listed. The source made the active and inactive calls. Calls follow the shape of the dose curve; as a rule, active = well fitted curve in either direction with a large enough effect (not every such curve was filed as active); inconclusive = small, poorly fitted or top-dose-only effect, or another doubt; inactive = flat fitted curve, though single readings scatter.
Let's look at some compounds and their measured activity, negative = inhibition.

The examples below pair each entry with its known result.
[[record]]
compound = "CCCCCNC(=O)c1c(N)n(/N=C/c2ccco2)c2nc3ccccc3nc12"
obs_value = "28.5% (inactive)"

[[record]]
compound = "CCC(=O)Oc1ccc(C(CC)C(CC)c2ccc(OC(=O)CC)cc2)cc1 (stereo not drawn)"
obs_value = "-3.77% (inactive)"


I have this compound here, "Cc1cc(C)nc(CC(N)=O)n1" , and I need its recorded activity, negative = inhibition.
-0.0254% (inactive)

I have this compound here, CC(C)COc1nc2ccccc2nc1C(C#N)C(=O)NC1CCCCC1 (stereo not drawn) , and I need its recorded activity, negative = inhibition.
5.36% (inactive)

###

# Tested on: N140
# method summary: qHTS profiling for inhibitors of Plasmodium falciparum proliferation (AID 504749); further: nearly all actives have a fitted effect of over 60% in size
# condition: P. falciparum in erythrocytes, SYBR Green DNA, 72 h; series mostly up to 28.7 µM
Records with an inconclusive call do not appear. Activity calls are given as the source filed them. Calls come from the whole dose curve; as a rule, active = well fitted inhibition curve with a large enough effect; inconclusive = small, poorly fitted or top-dose-only effect; inactive = flat fitted curve, though single readings scatter.
Outcome field: choose from active, inactive

These recorded examples may help you get a feel for the data.
[[record]]
compound = "CNC(=O)C(N)CSC(C)C1=C(C)c2cc3[n-]c(cc4nc(cc5[n-]c(cc1n2)c(C)c5CCC(=O)O)C(CCC(=O)O)=C4C)c(C)c3C(C)SCC(N)C(=O)NC.[Fe+2] (centres undefined)"
category = "inactive"

[[record]]
compound = "CC(CN1CC(=O)NC(=O)C1)N1CC(=O)NC(=O)C1 (centres undefined)"
category = "inactive"

[[record]]
compound = "C=CC1CN2CCC1CC2[C@@H](O)c1ccnc2ccc(OC)cc12 (some centres undefined)"
category = "active"

[[record]]
compound = "CC(C)(C)NC[C@H](O)CSc1nc(-c2ccc(C(N)=O)s2)cs1"
category = "inactive"

[[record]]
compound = "C[C@]12CC[C@@H]3c4ccc(O)cc4CC[C@H]3[C@@H]1C[C@H](O)C2O (some centres undefined)"
category = "inactive"

[[record]]
compound = "CCCCCOC(=O)Nc1nc(=O)n(C2O[C@H](C)[C@@H](O)[C@@H]2O)cc1F (some centres undefined)"
category = "inactive"

[[record]]
compound = "Cc1cc(O)c2c(c1)OC1(C)CCC3C(C)(C)CCCC34COC2C14 (centres undefined)"
category = "active"

[[record]]
compound = "NC(=O)NC(CCC(=O)O)C(=O)O (centres undefined)"
category = "inactive"


Switching to the query record.
Could you check what this test reported for CCCC(=O)O[C@]1(C(=O)COC(C)=O)CC[C@H]2C3C[C@H](F)C4=CC(=O)C=CC4(C)[C@@]3(F)[C@@H](O)CC21C (some centres undefined) ?
inactive
